// data source = PubChem BioAssay (NCI)

Tested on: IGROV1 ovarian
measurement description: NCI-60 one-dose screen, 48 h
applied conditions: 10 µM unless noted
The panel holds about 83,000 compounds, 20% with a hit somewhere; the sample as a whole holds those more often. The source made the active and inactive calls. The calls were made as follows: active = growth percent below 10; inactive = the rest.
Outcomes: t (active), f (inactive)

{"compound": "Brc1cccc(-c2cc(-c3ccc4c(c3)OCCCO4)[nH]n2)c1", "cat": "f"}
{"compound": "CN(C)CCCC(C#N)c1ccccc1 (stereo unspecified)", "cat": "f"}
{"compound": "COc1ccc(/C=C2\\N=C(c3ccccc3)N(C(=O)c3ccccc3O)NC2=O)cc1", "cat": "f"}
{"compound": "O=C1C(Cl)=C(Nc2ccccn2)C(=O)c2ccccc21", "cat": "f"}
{"compound": "Clc1ccccc1-c1nc2ccccc2[nH]1", "cat": "f"}
{"compound": "N#Cc1c(-c2ccccc2)cc(-c2ccccc2)n(CC(=O)NO)c1=O", "cat": "t"}
{"compound": "CCCCC(CC)OC(=O)C(Br)CC (stereo unspecified)", "cat": "f"}
{"compound": "CCCCCCCCN(CCCCCCCC)CCCCCCNc1cc(OC)cc2cccnc12", "cat": "f"}
{"compound": "COc1ccc(C(=O)c2cc(OC)c3c(c2)OCO3)cc1O", "cat": "f"}
{"compound": "CC(=O)OC[C@]12CC[C@H]3[C@@H](C[C@H]4O[C@]45CC=CC(=O)[C@]35C)[C@]1(O)CC[C@@]2(O)[C@@](C)(O)C1CC(C)=C(C)C(=O)O1 (stereo partly specified)", "cat": "t"}
{"compound": "CCCCN(CCCC)C(=N)c1ccnc2ccccc12", "cat": "f"}

----------
Tested on: LOX IMVI melanoma
measurement description: NCI-60 one-dose screen, 48 h (100 = growth as untreated, 0 = no growth, -100 = all killed)
applied conditions: 10 µM unless noted
About 83,000 compounds went through this panel and 20% of them were active in at least one assay; those are over-represented in the sample as a whole.
The entries below come with measured growth values attached.
property measured: growth (%)

{"compound": "S=c1[nH]nc(-c2cc3ccc2CCc2ccc(cc2)CC3)n1-c1ccccc1", "property measured": "growth", "experimental result": 98}
{"compound": "CCCOC(=O)n1cccc1", "property measured": "growth", "experimental result": 89.8}
{"compound": "CCCCCCCCC(C)OC(=O)c1nn(C(C)=O)c2ccccc12 (configuration not stated)", "property measured": "growth", "experimental result": 103}
{"compound": "Cn1ccc(Nc2nccc(Oc3ccc(C(=O)Nc4cccc(F)c4)c(Cl)c3)n2)c1", "property measured": "growth", "experimental result": 91.9}
{"compound": "CN(C)c1oc(C2OC2c2ccccc2)nc1C#N (configuration not stated)", "property measured": "growth", "experimental result": 99.3}
{"compound": "CN1C(=O)N(C)C2C1NN=c1s/c(=C\\C=C\\c3ccccc3)c(=O)n12 (configuration not stated)", "property measured": "growth", "experimental result": 46.4}
{"compound": "O=C(/C=C/c1cc(-c2ccc3c(c2)OCO3)n[nH]1)c1ccc2c(c1)OCO2", "property measured": "growth", "experimental result": 87.6}
{"compound": "N/C(=N\\C(N)=N\\c1nc2ccccc2s1)c1cccc(Br)c1", "property measured": "growth", "experimental result": 33.2}
{"compound": "COc1cc(C(=O)/C=C/c2ccc3nc(-c4cc(F)cc(F)c4)sc3c2)cc(OC)c1OC", "property measured": "growth", "experimental result": 94.9}
{"compound": "CCCCCCCCCCCCNC(=O)[C@H]1CSC(c2cc3ccccc3s2)N1 (some centres not stated)", "property measured": "growth", "experimental result": -85.7}
{"compound": "N#C/C(=C1C=C/C(=N/O)C(Cl)=C/1)c1ccc(Cl)cc1", "property measured": "growth", "experimental result": 7.65}
{"compound": "C=COC(=O)CCCCCCCCC", "property measured": "growth", "experimental result": 98.5}
{"compound": "C=C[C@@H]1C[C@@H]2Cc3cc(Cl)ccc3N1O2", "property measured": "growth", "experimental result": 92.5}
{"compound": "COc1ccc(CNCCCN2C(=O)c3ccc4c5c(ccc(c35)C2=O)C(=O)N(CCCNCCCCNCCCN)C4=O)c(OC)c1OC", "property measured": "growth", "experimental result": 6.59}
{"compound": "COc1ccc(C2CC(c3ccc(OC)cc3OC)=NN2c2ccc(S(N)(=O)=O)cc2)cc1 (configuration not stated)", "property measured": "growth", "experimental result": 101}
{"compound": "O=C(/C=C/c1ccccc1)c1cccc(O)c1", "property measured": "growth", "experimental result": 81.7}
{"compound": "COc1cc(C2CC(c3ccc4c(c3)OCO4)=NN2C=O)cc(OC)c1OC (configuration not stated)", "property measured": "growth", "experimental result": 34.5}
{"compound": "C=C[C@@H]1C[C@H](O)Cc2c(C)cc(C)cc2N1", "property measured": "growth", "experimental result": 77.6}
{"compound": "Oc1ccc(Cl)cc1-c1cc(-c2ccc(F)cc2)n[nH]1", "property measured": "growth", "experimental result": 61.3}
{"compound": "O=C(Nc1cccc(-n2cc(-c3ccncc3)c(-c3ccc(Cl)c(O)c3)n2)c1)c1ccccc1", "property measured": "growth", "experimental result": 68.5}
{"compound": "CC(C)C1=CC2=C(C=O)C[C@@H]3[C@](C)(CCC[C@@]3(C)C(=O)OCC#CCN3CCCC3)[C@H]2CC1", "property measured": "growth", "experimental result": 91.9}
{"compound": "COc1ccc(-c2c(-c3cc(OC)c4c(c3)OCO4)noc2N)cc1", "property measured": "growth", "experimental result": 15.4}

----------
Tested on: HOP-62 NSCLC
measurement description: NCI-60 one-dose screen, 48 h (100 = growth as untreated, 0 = no growth, -100 = all killed)
applied conditions: 10 µM unless noted
This is part of a sample that, as a whole, favours compounds with a hit. Of some 83,000 tested, about 20% had one in any assay.
growth strictly less than 80% = satisfied. Otherwise not satisfied.

{"compound": "CCCCCCCCCCCCCCCCCCNC(=O)[C@H]1CSC(c2cccs2)N1 (some centres not stated)", "cat": "satisfied"}
{"compound": "Cc1nn(-c2ccc(Cl)cc2)c2ncnc(N/N=C/c3cccc([N+](=O)[O-])c3)c12", "cat": "not satisfied"}
{"compound": "COc1cccc(CC(C)=C(c2ccc(OCCN(C)C)cc2)c2ccc(OCCN(C)C)cc2)c1", "cat": "satisfied"}
{"compound": "O=C(/C=C/c1ccccc1)c1cccc(O)c1", "cat": "not satisfied"}
{"compound": "Cc1ccc(S(=O)(=O)Nc2c(Br)cc(Br)cc2C(N)=O)cc1", "cat": "not satisfied"}
{"compound": "C=C1CCC2C(C)(CO)C(O)CCC2(C)C1C/C=C1/C(=O)OCC1O/C=C/c1ccccc1 (configuration not stated)", "cat": "not satisfied"}
{"compound": "CC(C)(C)OC(=O)NCCc1ccc(N=C=S)cc1", "cat": "satisfied"}
{"compound": "O=[N+]([O-])c1ccc(-c2cn(-c3ccccc3)c(-c3ccccc3)n2)cc1", "cat": "satisfied"}
{"compound": "CC(C)CC1NC(C)(C)CO1 (configuration not stated)", "cat": "not satisfied"}
{"compound": "COc1ccc(-c2nc(N3CCCC3=O)sc2Br)cc1OC", "cat": "not satisfied"}
{"compound": "Clc1cc(Cl)cc(-c2ccc(-c3ccc(/C=N/NC4=NCCN4)cc3)s2)c1", "cat": "satisfied"}
{"compound": "O=C(c1c[nH]c(=O)c(-c2ccccc2)c1)c1ccccc1O", "cat": "not satisfied"}
{"compound": "O=C(NNC(=O)N1c2ccccc2C=Cc2ccccc21)c1ccccc1", "cat": "not satisfied"}
{"compound": "S=c1[nH]nc(-c2cc3ccc2CCc2ccc(cc2)CC3)n1C1CC1", "cat": "not satisfied"}
{"compound": "COc1ccc(NC(=O)c2cc(OC)c(OC)c(OC)c2)cc1O", "cat": "satisfied"}
{"compound": "Clc1ccccc1-c1nc2ccccc2[nH]1", "cat": "not satisfied"}
{"compound": "COc1cc(-c2nn(-c3cccc(NC(=O)Nc4ccc(Cl)c(C(F)(F)F)c4)c3)cc2-c2ccncc2)ccc1Cl", "cat": "satisfied"}
{"compound": "ClC(Cl)c1nc(-c2ccccc2)nc2cc(-c3ccccc3)nn12", "cat": "satisfied"}
{"compound": "N=C(N)c1ccc(-c2ccc(-c3ccc(-c4cccs4)s3)s2)cc1", "cat": "not satisfied"}
{"compound": "Cc1ccc(-c2cc3nc(C(Cl)Cl)nc(-c4ccccc4C)n3n2)cc1", "cat": "satisfied"}

----------
Each record here notes measured growth.
System: HCT-15 colon
measurement description: NCI-60 one-dose screen, 48 h (100 = growth as untreated, 0 = no growth, -100 = all killed)
applied conditions: 10 µM unless noted
Compounds without any hit were thinned out: in the full panel of roughly 83,000, 20% have a hit.

{"compound": "CNC(=S)NNC(=O)C1CC1", "growth, %": 105}
{"compound": "O=C(NS(=O)(=O)c1ccccc1)n1cc(-c2ccncc2)c(-c2ccc(Cl)c(O)c2)n1", "growth, %": 103}
{"compound": "Cc1ccc(CSC(=N)N)cc1C", "growth, %": 116}
{"compound": "CCCCCCCCC(C)OC(=O)c1nn(C(C)=O)c2ccccc12 (configuration not stated)", "growth, %": 101}
{"compound": "COc1ccc2c(c1)cn1c3ccc(OC)cc3[nH]c(=O)c21", "growth, %": -84.4}
{"compound": "OCCCCCCNc1ncnc2cc(Cl)ccc12", "growth, %": 101}
{"compound": "CC(NNC(C)c1ccccc1)c1ccccc1 (configuration not stated)", "growth, %": 105}
